Target: Serine/threonine-protein kinase 3 (Homo sapiens, UniProt Q13188)
Sequence (Q13188 whole entry): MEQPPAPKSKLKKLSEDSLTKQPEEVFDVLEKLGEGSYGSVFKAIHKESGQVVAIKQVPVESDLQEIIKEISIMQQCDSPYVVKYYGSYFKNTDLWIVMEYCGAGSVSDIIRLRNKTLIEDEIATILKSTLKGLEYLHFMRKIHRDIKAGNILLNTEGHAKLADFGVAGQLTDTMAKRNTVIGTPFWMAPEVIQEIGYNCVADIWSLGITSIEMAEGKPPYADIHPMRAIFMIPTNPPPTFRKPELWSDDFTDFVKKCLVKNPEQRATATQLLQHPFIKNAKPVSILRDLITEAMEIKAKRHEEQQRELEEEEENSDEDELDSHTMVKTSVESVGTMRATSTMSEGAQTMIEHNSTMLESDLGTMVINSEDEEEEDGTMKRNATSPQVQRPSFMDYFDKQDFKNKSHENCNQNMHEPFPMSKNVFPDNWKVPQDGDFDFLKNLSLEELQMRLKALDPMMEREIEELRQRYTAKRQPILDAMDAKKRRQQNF
Endpoint Label: Kd (nM)

1. CN1C(=O)c2sccc2N(C)c2nc(Nc3ccc(S(N)(=O)=O)cc3)ncc21; 11

----------
Assay: AUC (0 to infinity) in male Sprague-Dawley rat at 10 mg/kg, po measured for 24 hrs by LC-MS/MS analysis
Format: ADME, organism-based
Conditions: in vivo
Endpoint Label: AUC(0-inf) (ng·h/mL)

1) CN1C(=O)c2sccc2N(C)c2nc(Nc3ccc(S(N)(=O)=O)cc3)ncc21; 1040

----------
Experiment: Cmax in male Sprague-Dawley rat at 5 mg/kg, iv measured for 24 hrs by LC-MS/MS analysis
Format: ADME, organism-based
Conditions: in vivo
Endpoint Label: Cmax (ng/mL)

1. CN1C(=O)c2sccc2N(C)c2nc(Nc3ccc(S(N)(=O)=O)cc3)ncc21; 1140

----------
Target: Serine/threonine-protein kinase TAO1 (Homo sapiens, UniProt Q7L7X3)
Sequence (Q7L7X3 whole entry): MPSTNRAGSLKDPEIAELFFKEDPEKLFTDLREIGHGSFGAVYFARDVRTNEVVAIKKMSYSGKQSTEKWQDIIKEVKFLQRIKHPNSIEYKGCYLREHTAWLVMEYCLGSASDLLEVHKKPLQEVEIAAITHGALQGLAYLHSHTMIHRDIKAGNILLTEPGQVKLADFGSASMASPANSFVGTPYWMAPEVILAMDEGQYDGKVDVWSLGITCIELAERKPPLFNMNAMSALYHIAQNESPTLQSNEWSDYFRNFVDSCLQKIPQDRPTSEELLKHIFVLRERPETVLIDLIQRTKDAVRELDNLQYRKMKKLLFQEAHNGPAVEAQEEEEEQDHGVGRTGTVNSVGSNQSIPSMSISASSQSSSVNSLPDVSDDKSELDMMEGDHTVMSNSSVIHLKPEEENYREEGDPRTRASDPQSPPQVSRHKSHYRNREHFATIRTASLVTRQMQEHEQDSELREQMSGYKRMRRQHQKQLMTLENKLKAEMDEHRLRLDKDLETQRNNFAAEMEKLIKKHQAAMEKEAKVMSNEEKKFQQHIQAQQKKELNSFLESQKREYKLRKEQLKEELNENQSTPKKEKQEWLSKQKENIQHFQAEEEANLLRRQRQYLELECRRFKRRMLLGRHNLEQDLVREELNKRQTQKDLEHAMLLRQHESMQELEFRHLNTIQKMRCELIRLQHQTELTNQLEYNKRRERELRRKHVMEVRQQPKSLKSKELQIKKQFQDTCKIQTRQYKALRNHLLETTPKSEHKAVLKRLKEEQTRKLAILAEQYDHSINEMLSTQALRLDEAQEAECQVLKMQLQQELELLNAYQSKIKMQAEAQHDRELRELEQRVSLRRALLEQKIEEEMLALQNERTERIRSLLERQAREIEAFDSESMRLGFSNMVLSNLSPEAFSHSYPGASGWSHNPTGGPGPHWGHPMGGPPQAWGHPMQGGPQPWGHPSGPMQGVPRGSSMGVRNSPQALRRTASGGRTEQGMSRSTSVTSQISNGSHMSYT
Endpoint Label: Kd (nM)

1. CN1C(=O)c2sccc2N(C)c2nc(Nc3ccc(S(N)(=O)=O)cc3)ncc21; 180

----------
Target: Serine/threonine-protein kinase 3 (Homo sapiens, UniProt Q13188, D109A)
Sequence (Q13188 whole entry D109A): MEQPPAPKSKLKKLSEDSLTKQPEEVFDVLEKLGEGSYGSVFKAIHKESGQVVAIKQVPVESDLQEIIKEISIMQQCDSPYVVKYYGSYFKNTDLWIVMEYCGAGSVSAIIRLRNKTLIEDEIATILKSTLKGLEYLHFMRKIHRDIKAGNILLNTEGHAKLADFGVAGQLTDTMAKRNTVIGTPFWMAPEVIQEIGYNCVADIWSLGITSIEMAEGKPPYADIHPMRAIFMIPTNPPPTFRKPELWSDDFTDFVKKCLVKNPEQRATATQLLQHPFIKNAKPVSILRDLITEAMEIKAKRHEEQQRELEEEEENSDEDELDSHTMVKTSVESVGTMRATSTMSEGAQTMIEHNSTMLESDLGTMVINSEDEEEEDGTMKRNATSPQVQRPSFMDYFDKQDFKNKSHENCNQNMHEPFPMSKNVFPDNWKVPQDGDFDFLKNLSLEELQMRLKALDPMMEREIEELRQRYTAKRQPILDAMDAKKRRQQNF
Endpoint Label: IC50 (nM)

1. CN1C(=O)c2sccc2N(C)c2nc(Nc3ccc(S(N)(=O)=O)cc3)ncc21; 1040
